target-or-system: human TLR8 (Homo sapiens)
Sequence (Q9NR97 27-1041): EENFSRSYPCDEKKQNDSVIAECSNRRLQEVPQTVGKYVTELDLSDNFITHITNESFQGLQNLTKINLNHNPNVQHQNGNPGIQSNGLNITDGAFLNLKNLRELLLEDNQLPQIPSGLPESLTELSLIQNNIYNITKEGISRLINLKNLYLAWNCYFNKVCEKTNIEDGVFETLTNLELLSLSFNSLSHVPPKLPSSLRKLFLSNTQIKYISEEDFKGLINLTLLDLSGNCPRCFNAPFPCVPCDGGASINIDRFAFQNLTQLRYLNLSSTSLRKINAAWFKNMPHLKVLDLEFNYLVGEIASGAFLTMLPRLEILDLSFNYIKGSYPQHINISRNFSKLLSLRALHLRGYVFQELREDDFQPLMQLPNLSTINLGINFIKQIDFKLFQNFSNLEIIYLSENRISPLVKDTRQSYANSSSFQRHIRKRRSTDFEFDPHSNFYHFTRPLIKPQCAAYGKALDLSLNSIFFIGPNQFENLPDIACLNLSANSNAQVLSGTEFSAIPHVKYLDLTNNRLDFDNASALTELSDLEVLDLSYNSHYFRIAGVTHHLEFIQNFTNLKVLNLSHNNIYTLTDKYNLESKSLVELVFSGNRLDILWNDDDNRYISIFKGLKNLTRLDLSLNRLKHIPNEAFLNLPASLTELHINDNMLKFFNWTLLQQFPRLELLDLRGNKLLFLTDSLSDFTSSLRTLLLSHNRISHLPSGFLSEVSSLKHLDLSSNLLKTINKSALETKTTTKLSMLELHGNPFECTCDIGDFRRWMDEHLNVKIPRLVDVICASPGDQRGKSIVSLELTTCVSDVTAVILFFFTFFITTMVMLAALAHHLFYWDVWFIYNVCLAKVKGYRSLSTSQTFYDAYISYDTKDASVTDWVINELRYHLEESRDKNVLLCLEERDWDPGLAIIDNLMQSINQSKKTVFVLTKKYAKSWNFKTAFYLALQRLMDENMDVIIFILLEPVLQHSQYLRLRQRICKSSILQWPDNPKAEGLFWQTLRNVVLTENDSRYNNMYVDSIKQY
assay-overview: HEK293-Blue-hTLR-8 cells assay (SEAP reporter, R848 stimulation)
recorded-conditions: HEK293-Blue-hTLR8 cells, R848 ligand, 20 hrs incubation
Protocol: The following tests were carried out in order to determine the activity of the compounds of formula (I) in HEK293-Blue-hTLR-7/8/9 cells assay. HEK293-Blue-hTLR-8 Cells Assay: A stable HEK293-Blue-hTLR-8 cell line was purchased from InvivoGen (Cat. #: hkb-htlr8, San Diego, Calif., USA). These cells were originally designed for studying the stimulation of human TLR8 by monitoring the activation of NF-κB. […]
Note to self: IC50 under 0.07 µM means T, ties and anything higher get F.

In plain terms, does N#Cc1ccc(N2CC(CN3CC4CCNCC43)C3(CC3)C2)c2nccnc12 (stereo not drawn) [Example 50] come in under 0.07 µM for IC50?
T

Criterion: IC50 strictly below 0.07 µM. Is it met by FC(F)(F)c1ccc(N2CC(CN3CCC4(CCNCC4)CC3)C3(CC3)C2)c2nccnc12 (stereo not drawn) [Example 31] ?
F

For N#Cc1ccc(N2C[C@H](CN3CCC(N4CCCCC4)CC3)[C@@H](C(F)(F)F)C2)c2nccnc12 [Example 61] , is the recorded IC50 below the cut-off of 0.07 µM?
T

In the record for N#Cc1ccc(N2C[C@H](CN3CC4(CC(N)C4)C3)[C@@H](C(F)(F)F)C2)c2nccnc12 [Example 47] , is IC50 less than 0.07 µM?
F

Here's an entry: FC(F)(F)c1ccc(N2CC(CN3C[C@H]4CNC[C@H]4C3)C3(CC3)C2)c2nccnc12 (stereo partly drawn) [Example 41] . Is its IC50 below 0.07 µM?
F

Determine whether this compound shows IC50 lower than 0.07 µM (ties excluded): N#Cc1ccc(N2CC(CN3CCC(N)CC3)C3(CC3)C2)c2nccnc12 (stereo not drawn) [Example 68]
T

I wonder whether CN(C)C1CCN(C[C@H]2CN(c3ccc(C#N)c4nccnc34)C[C@@H]2C(F)(F)F)CC1 [Example 80] has IC50 below 0.07 µM. Can you tell?
T

Identify whether the compound N#Cc1ccc(N2CCC(CN3CCC4(CCNCC4)CC3)C2)c2nccnc12 (stereo not drawn) [Example 37] records IC50 below 0.07 µM.
F

IC50 strictly < 0.07 µM for this compound? C[C@H]1CN(c2ccc(C#N)c3ncccc23)C[C@@H]1CN1CCC2(CCNCC2)CC1 [Example 23]
F

Strictly below 0.07 µM: is that where IC50 of N#Cc1ccc(N2C[C@H](CN3CCC(N4CCCCCC4)CC3)[C@@H](C(F)(F)F)C2)c2nccnc12 [Example 62] sits?
T

Take the compound N#Cc1ccc(N2CC(CN3CCC4NCC4C3)C3(CC3)C2)c2nccnc12 (stereo not drawn) [Example 66] and say whether its IC50 is less than 0.07 µM.
F

Lab note: IC50 threshold 0.07 µM. Does this compound come in strictly under it? N#Cc1ccc(N2C[C@H](CN3CCC4(CCCNC4)C3)[C@@H](C(F)(F)F)C2)c2cccnc12 (stereo partly drawn) [Example 6]
T

Consider N#Cc1ccc(N2C[C@H](CN3CC4CCC(C3)C4N)[C@@H](C(F)(F)F)C2)c2nccnc12 (stereo partly drawn) [Example 73] . Does its IC50 lie strictly below 0.07 µM?
T

Item N#Cc1ccc(N2C[C@H](CN3C4CCC3CC(N)C4)[C@@H](C(F)(F)F)C2)c2nccnc12 (stereo partly drawn) [Example 63] : IC50 beneath 0.07 µM, strictly?
T

Would you kindly verify if IC50 of N#Cc1ccc(N2CC(CNC3CCCNCC3)C3(CC3)C2)c2nccnc12 (stereo not drawn) [Example 39] is strictly less than 0.07 µM?
F

Would you kindly verify if IC50 of N#Cc1ccc(N2C[C@H](CN3CC4CCC3CN4)[C@@H](C(F)(F)F)C2)c2nccnc12 (stereo partly drawn) [Example 77] is strictly less than 0.07 µM?
T

Hi there! Is IC50 for N#Cc1ccc(N2CC(CN3CCC(N4CCOCC4)CC3)C3(CC3)C2)c2nccnc12 (stereo not drawn) [Example 58] below 0.07 µM, do you know?
F

Regarding N#Cc1ccc(N2C[C@H](CN3CCC4(CCNC4)C3)[C@@H](C(F)(F)F)C2)c2cccnc12 (stereo partly drawn) [Example 9] , kindly confirm whether its IC50 is beneath 0.07 µM.
T
